Biological target: AuroraA-TPX2 (Homo sapiens, UniProt O14965)
Construct: 20 µL of AuroraA-TPX2 KD GST; GST
Assay: AuroraA-TPX2 Homogeneous Time Resolved Fluorescent (HTRF) kinase assay
Assay type: biochemical
Conditions: average; given as class symbols; read-out: AurA/TP X2_ IC50_IP (Avg)
Measured parameter: IC50

See these solved cases before continuing.
CCc1cc(-c2ccccc2)nnc1Nc1ccc(Oc2ncccc2-c2ccnc(NCCCN3CCCCC3)n2)nc1 500 to 2500 nM
c1ccc(-c2nnc(Nc3ccc(Oc4nccnc4-c4ccncc4)cc3)c3ccccc23)cc1 100 to 500 nM
Nc1nccc(-c2cccnc2Oc2ccc(Nc3nnc(-c4cccc(CCCOP(=O)(O)O)c4)c4ccccc34)cc2)n1 ≤ 100 nM

Inquiry: For the compound shown here, Cc1csc(-c2nnc(Nc3ccc(Oc4ncccc4-c4ccnc5c4CCN5)cc3)c3ccccc23)n1 , give the reported IC50.
Reply text: ≤ 100 nM

---

Target: AuroraB (Homo sapiens)
Construct: 20 µL of AuroraB FL His; His
Assay: AuroraB Homogeneous Time Resolved Fluorescent (HTRF) kinase assay
Assay type: biochemical
Conditions: average; given as class symbols; read-out: AurB_ _IC50_IP (Avg)
Measured parameter: IC50

Here's what some known entries look like.
Compound	IC50
c1ccc(-c2nnc(Nc3ccc(Oc4ncccc4-c4ccnc5c4CCCN5)cc3)c3ccccc23)cc1	100 to 500 nM
Nc1nccc(-c2cccnc2Oc2ccc(Nc3nnc(-c4cccc(OP(=O)(O)O)c4)c4ccccc34)cc2)n1	100 to 500 nM

Inquiry: // returns reported IC50 for input Nc1cc(-c2cccnc2Oc2ccc(Nc3nnc(-c4ccccc4O)c4ccccc34)cc2)ccn1
Reply text: ≤ 100 nM

Inquiry: Fill blank: measured IC50 of the compound Cc1cc(-c2cccc(CO)c2)nnc1Nc1ccc(Oc2ncccc2-c2ccnc(N)n2)cc1 is ____.
Reply text: ≤ 100 nM

Inquiry: Name the reported IC50 value associated with the compound Cc1cc(-c2ccccc2)nnc1Nc1ccc(Oc2ncccc2-c2ccncc2)cc1
Reply text: ≤ 100 nM

Inquiry: Item COc1ccc(F)cc1-c1nnc(Nc2ccc(Oc3ncccc3-c3ccnc(N)n3)cc2)c2ccccc12 has what recorded IC50?
Reply text: ≤ 100 nM

Inquiry: IC50 for COc1cccc(-c2nnc(Nc3ccc(Oc4ncccc4-c4ccnc(NCCCN5CCCC5)n4)cc3)c3ccccc23)n1 ?
Reply text: ≤ 100 nM

Inquiry: GET /values?readout=IC50&item= Nc1nccc(-c2cccnc2Oc2ccc(Nc3nnc(-c4cccc(OC(F)(F)F)c4)c4ccccc34)cc2)n1
Reply text: ≤ 100 nM

Inquiry: So what does the record say about IC50 for FC1CCCN(CCCNc2nccc(-c3cccnc3Oc3ccc(Nc4nnc(-c5ccccc5)c5ccccc45)cc3)n2)C1 (stereo not drawn) ?
Reply text: ≤ 100 nM

Inquiry: Tell me the measured IC50 of CC(=O)OCc1cccc(-c2nnc(Nc3ccc(Oc4ncccc4-c4ccnc(N)n4)cc3)c3ccccc23)n1 , please.
Reply text: ≤ 100 nM

Inquiry: Recorded IC50 for CCc1cc(-c2ccccc2)nnc1Nc1ccc(Oc2ncccc2-c2ccnc(NCCCN3CCN(C)CC3)n2)cc1 , please?
Reply text: ≤ 100 nM

Inquiry: Recorded IC50 for Cc1csc(-c2nnc(Nc3ccc(Oc4ncccc4-c4ccnc(NCCCO)n4)cc3)c3ccccc23)n1 , please?
Reply text: ≤ 100 nM

---

Target: AuroraB (Homo sapiens)
Construct: 20 µL of AuroraB FL His; His
Experiment: AuroraB Homogeneous Time Resolved Fluorescent (HTRF) kinase assay
Type: biochemical
Conditions: average; given as numbers, unit inferred; read-out: AurB_ _IC50_IP (Avg)
pIC50: −log10 of the molar value.
Measured parameter: pIC50

Cc1cccc(-c2nnc(Nc3ccc(Oc4ncccc4-c4ccnc(NCCCN5CCN(C)CC5)n4)cc3)c3ccccc23)n1 7.87
c1ccc(-c2nnc(Nc3ccc(Oc4ncccc4-c4ccnc5c4CCN5)cc3)c3ccccc23)cc1 7.99

1 = C[C@H]1CN(CCCNc2nccc(-c3cccnc3Oc3ccc(Nc4nnc(-c5ccccc5)c5ccccc45)cc3)n2)[C@@H](C)CO1
2 = Nc1nccc(-c2cccnc2Oc2ccc(Nc3ncc(-c4ccccc4)c4ccccc34)cc2)n1
Inquiry: Of 1 versus 2 , which is the one with smaller reported pIC50? Answer with the label corresponding to your selection.
Reply text: 2

---

Molecular target: AuroraB (Homo sapiens)
Construct: 20 µL of AuroraB FL His; His
Assay: AuroraB Homogeneous Time Resolved Fluorescent (HTRF) kinase assay
Format: biochemical
Conditions: read-out: average activity in the Aurora kinase B HTRF assay
Measured parameter: IC50

Sample answers from the record:
CNc1nccc(-c2cccnc2Oc2ccc(Nc3nnc(-c4cc(Cl)cs4)c4ccccc34)cc2)n1 ≤ 1000 nM
Nc1ncc(F)c(-c2cccnc2Oc2ccc(Nc3nnc(-c4ccccc4)c4ccccc34)cc2)n1 ≤ 100 nM

From here, focus on the item given below.
Inquiry: For Nc1nccc(-c2cccnc2Oc2ccc(Nc3nnc(-c4ccc(CN5CCCC5)cc4)c4ccccc34)cc2)n1 , what is its reported IC50?
Reply text: ≤ 1000 nM

---

Target: AuroraB (Homo sapiens, UniProt Q96GD4)
Construct: 20 µL of AuroraB FL His; His
Sequence (Q96GD4 whole entry): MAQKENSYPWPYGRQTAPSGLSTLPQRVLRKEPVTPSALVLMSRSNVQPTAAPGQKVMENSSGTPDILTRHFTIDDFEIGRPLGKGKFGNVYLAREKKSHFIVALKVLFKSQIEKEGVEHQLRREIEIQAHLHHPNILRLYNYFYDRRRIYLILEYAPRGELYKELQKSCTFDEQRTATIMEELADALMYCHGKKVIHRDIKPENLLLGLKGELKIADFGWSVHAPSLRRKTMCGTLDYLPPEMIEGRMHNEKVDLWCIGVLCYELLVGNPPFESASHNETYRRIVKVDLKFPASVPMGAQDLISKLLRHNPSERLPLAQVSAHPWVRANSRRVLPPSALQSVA
Assay: AuroraB Homogeneous Time Resolved Fluorescent (HTRF) kinase assay
Type: biochemical
Settings: average; given as numbers, unit inferred; read-out: AurB_ _IC50_IP (Avg)
Measured parameter: IC50 (nM)

The examples below pair each entry with its known result.
Molecule	Measured parameter	Scale unit	Measured value
Nc1n[nH]cc1-c1cccnc1Oc1ccc(Nc2nnc(Cc3ccccc3)c3ccccc23)cc1 [compound 303]	IC50	nM	16.6
Cc1cccc(-c2nnc(Nc3ccc(Oc4ncccc4-c4ccnc(NCCCN5CCNCC5)n4)cc3)c3ccccc23)n1 [compound 277]	IC50	nM	2.7
Nc1nccc(-c2cccnc2Oc2ccc(Nc3nnc(C4CCCCC4)c4ccccc34)cc2)n1 [compound 272]	IC50	nM	5.5
c1ccc(-c2nnc(Nc3ccc(Oc4ccccc4-c4ccncc4)cc3)c3ccccc23)cc1 [compound 252]	IC50	nM	660
Nc1nccc(-c2cccnc2Oc2ccc(Nc3nnc(-c4ccccc4OP(=O)(O)O)c4ccccc34)cn2)n1 [compound 391]	IC50	nM	641

1 = Cc1ccc(-c2nnc(Nc3ccc(Oc4ncccc4-c4c[nH]nc4N)cc3)c3ccccc23)cc1 [compound 301]
2 = Cc1csc(-c2nnc(Nc3ccc(Oc4ncccc4-c4ccnc(N)n4)nc3)c3ccccc23)c1 [compound 332]
Inquiry: Hi! Which is lower in terms of IC50, the first one 1 or the second one 2 ? Response format: the label of the selected entry.
Reply text: 2
(2: 1.6 nM, 1: 3.1 nM)

---

The reader will find reported pIC50 values listed item by item below.
Molecular target: AuroraA-TPX2 (Homo sapiens, UniProt O14965)
Construct: 20 µL of AuroraA-TPX2 KD GST; GST
Experiment: AuroraA-TPX2 Homogeneous Time Resolved Fluorescent (HTRF) kinase assay
Assay type: biochemical
Conditions: average; given as class symbols; read-out: AurA/TP X2_ IC50_IP (Avg)
pIC50: −log10 of the molar value.

Field: example entries. Status: answers known.
CCc1cc(-c2ccccc2)nnc1Nc1ccc(Oc2ncccc2-c2ccnc(NCCCN3CCCC3)n2)cc1 6.30 to 7.00
COc1cccc(-c2nnc(Nc3ccc(Oc4ncccc4-c4ccnc(N)n4)cc3)c3ccccc23)n1 ≥ 7.00
Nc1nccc(-c2cccnc2Oc2ccc(Nc3nnc(-c4cccc(CCO)c4)c4ccccc34)cc2)n1 ≥ 7.00

// moving on: another record for pIC50
Inquiry: Short answer please: pIC50, AuroraA-TPX2 (Homo sapiens, UniProt O14965), entry Cc1cc(-c2ccccc2)nnc1Nc1ccc(Oc2ncccc2-c2ccnc(NCCCCN(C)C)n2)cc1
Reply text: ≥ 7.00

---

Reported pIC50 values for a set of compounds
Target: AuroraA-TPX2 (Homo sapiens, UniProt O14965)
Construct: 20 µL of AuroraA-TPX2 KD GST; GST
Sequence (O14965 133-383 limits assumed): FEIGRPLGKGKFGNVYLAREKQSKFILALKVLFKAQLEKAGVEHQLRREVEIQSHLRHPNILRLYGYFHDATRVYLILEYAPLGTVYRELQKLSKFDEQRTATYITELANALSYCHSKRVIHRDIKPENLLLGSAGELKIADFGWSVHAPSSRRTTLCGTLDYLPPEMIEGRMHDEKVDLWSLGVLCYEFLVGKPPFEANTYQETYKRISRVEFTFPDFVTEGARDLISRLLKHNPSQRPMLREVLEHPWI
Sequence (Q9ULW0 1-43 partner limits assumed): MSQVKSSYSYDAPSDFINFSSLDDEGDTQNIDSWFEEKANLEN
Test: AuroraA-TPX2 Homogeneous Time Resolved Fluorescent (HTRF) kinase assay
Format: biochemical
Settings: average; given as class symbols; read-out: AurA/TP X2_ IC50_IP (Avg)
pIC50: −log10 of the molar value.

Compound	pIC50
CCc1cc(-c2ccccc2)nnc1Nc1ccc(Oc2ncccc2-c2ccnc(NCCCN3CCNCC3)n2)cc1 [compound 457]	≥ 7.00
CN1CCN(CCCNc2cc(-c3cccnc3Oc3ccc(Nc4nnc(-c5ccccc5)c5ccccc45)cc3)ccn2)CC1 [compound 279]	6.30 to 7.00
Cc1n[nH]cc1-c1cccnc1Oc1ccc(Nc2nnc(-c3ccccc3)c3ccccc23)cc1 [compound 300]	6.30 to 7.00
c1ccc(-c2nnc(Nc3ccc(Oc4ncccc4-c4ccnc(NCCCN5CCC5)n4)cc3)c3ccccc23)cc1 [compound 295]	6.30 to 7.00
Nc1nccc(-c2cccnc2Oc2ccc(Nc3nnc(-c4cc(F)ccc4O)c4ccccc34)cn2)n1 [compound 387]	≥ 7.00
CC1CN(c2nnc(Nc3ccc(Oc4ncccc4-c4ccnc(N)n4)cc3)c3ccccc23)CCN1C (stereo not shown) [compound 395]	≥ 7.00

Proceed to the following item.
Inquiry: Request the reported pIC50 associated with ONc1nccc(-c2cccnc2Oc2ccc(Nc3nnc(-c4ccccc4)c4ccccc34)cc2)n1 [compound 310]
Reply text: ≥ 7.00

Source of measurements: patent EP1984353B1
